Target: T1, FZD3 cysteine-rich domain (CRD), MYC-tagged and GPI-anchored on CHO cells (human, UniProt Q9NPG1 24-150, GPI anchor)
T1 construct: domain: cysteine-rich domain (CRD); also called FZD3 CRD; CHO-myc-FZDGPI; not shown: MYC tag and GPI anchor signal
T1 sequence (looked up): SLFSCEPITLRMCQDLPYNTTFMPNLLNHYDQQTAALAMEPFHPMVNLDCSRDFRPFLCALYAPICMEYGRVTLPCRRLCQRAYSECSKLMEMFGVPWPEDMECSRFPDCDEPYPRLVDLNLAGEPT
Assay: immunofluorescence, CHO-CRD cells
Measured endpoint: binding result

Fab-2931 (Fab, V domains shown, Fab; also called Fv-2931) VH: EVQLVESGGGLVQPGGSLRLSCAASGFNLSYSSMHWVRQAPGKGLEWVAYISPYSGSTYYADSVKGRFTISADTSKNTAYLQMNSLRAEDTAVYYCARGSYWYVGGGWWVSGHGGMDYWGQGTLVTVSS VL: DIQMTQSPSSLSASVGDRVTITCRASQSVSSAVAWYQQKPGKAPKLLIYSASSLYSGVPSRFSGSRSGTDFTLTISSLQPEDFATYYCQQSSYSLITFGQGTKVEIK: no binding
Fab-2909 (Fab, V domains shown, Fab; also called Fv-2909) VH: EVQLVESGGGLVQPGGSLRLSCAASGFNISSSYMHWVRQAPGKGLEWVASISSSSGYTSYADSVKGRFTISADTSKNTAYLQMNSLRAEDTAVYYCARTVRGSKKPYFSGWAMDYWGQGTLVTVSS VL: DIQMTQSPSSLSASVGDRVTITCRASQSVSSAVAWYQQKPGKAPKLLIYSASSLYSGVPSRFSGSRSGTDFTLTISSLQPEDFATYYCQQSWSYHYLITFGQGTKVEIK: no binding
Fab-2933 (Fab, V domains shown, Fab; also called Fv-2933) VH: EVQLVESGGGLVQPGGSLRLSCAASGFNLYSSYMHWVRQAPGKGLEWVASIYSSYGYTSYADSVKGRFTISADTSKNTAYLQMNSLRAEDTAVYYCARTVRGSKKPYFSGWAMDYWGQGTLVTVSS VL: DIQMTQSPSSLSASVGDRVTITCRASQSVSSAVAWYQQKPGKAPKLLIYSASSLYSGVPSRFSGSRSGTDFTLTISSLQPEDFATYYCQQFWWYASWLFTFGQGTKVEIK: no binding

This collection of values is drawn from patent US20210253718A1.
